targetSystem: Wee1 kinase domain (Homo sapiens, UniProt P30291)
Construct: Wee1 kinase domain was purchased from Carna (catalog #05-177); purchased Carna 05-177
Sequence (P30291 299-569 limits assumed): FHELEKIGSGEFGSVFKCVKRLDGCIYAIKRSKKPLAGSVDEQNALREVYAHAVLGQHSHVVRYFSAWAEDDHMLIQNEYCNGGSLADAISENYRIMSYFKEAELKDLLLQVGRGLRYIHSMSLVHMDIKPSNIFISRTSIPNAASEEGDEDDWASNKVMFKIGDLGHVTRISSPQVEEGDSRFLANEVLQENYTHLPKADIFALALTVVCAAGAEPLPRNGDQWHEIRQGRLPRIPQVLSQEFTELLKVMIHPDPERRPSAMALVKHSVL
assayInfo: Wee1 Kinase Biochemical Assay (ADP-Glo)
conditionDetails: class symbols; 1 nM Wee1 enzyme, 15 uM ATP, 4 hours at 25° C.
pIC50: −log10 of the molar value.
propertyMeasured: pIC50

Observe how each entry below is paired with its result.
compound="CC1(C)C[C@H]2N(c3cccc(C(C)(C)N)n3)c3nc(Nc4ccc(N5CCOCC5)cc4)ncc3[C@@]2(C)CO1 (single isomer, unassigned) [Example 567]" targetsystem="Wee1 kinase domain (Homo sapiens, UniProt P30291)" measvalue="> 8.00"
compound="CC1(C)C[C@H]2N(c3cccc(C4(F)CNC4)n3)c3nc(Nc4ccc(N5CCOCC5)cc4)ncc3[C@@]2(C)CO1 (single isomer, unassigned) [Example 545]" targetsystem="Wee1 kinase domain (Homo sapiens, UniProt P30291)" measvalue="> 8.00"
compound="CC1(C)C[C@H]2N(c3cccc(N=S(C)(C)=O)n3)c3nc(NC(=O)C4(F)CC4)ncc3[C@@]2(C)CO1 (single isomer, unassigned) [Example 410]" targetsystem="Wee1 kinase domain (Homo sapiens, UniProt P30291)" measvalue="7.00 to 8.00"
compound="CNCc1cccc(N2c3nc(Nc4ccn(C)c(=O)c4)ncc3[C@@]3(C)COC(C)(C)C[C@@H]23)n1 (single isomer, unassigned) [Example 456]" targetsystem="Wee1 kinase domain (Homo sapiens, UniProt P30291)" measvalue="7.00 to 8.00"

With those in mind, consider the next compound.
Hello, please tell me recorded pIC50 for this one: CC1(C)C[C@H]2N(c3cccc(C(C)(C)O)n3)c3nc(Nc4ccc(O[C@H]5CCNC5)cc4)ncc3[C@@]2(C)CO1 (single isomer, unassigned) [Example 419]
> 8.00
